assay_name: Determination of inhibitor concentration in plasma after oral dosing
Format: in vivo, Sprague Dawley rats
experimental_conditions: Sprague-Dawley, rat plasma, dose 50 mg/kg, vehicle B (60% aq. propylene glycol)
Listing of recorded Cmax by entry.

{"smiles": "CC(C)(C)[C@H](NC(=O)[C@@H](CC(=O)O)n1ccc(-c2ccc(-c3ccncc3)cc2)c1)C(=O)Nc1ccncc1", "Cmax (ng/mL)": 210}
{"smiles": "CNC(=O)[C@@H](NC(=O)[C@@H](CC(=O)O)n1ccc(-c2ccc(C#N)cc2)c1)C(C)(C)C", "Cmax (ng/mL)": 590}
{"smiles": "CNC(=O)[C@@H](NC(=O)[C@@H](CC(=O)O)c1ccn(-c2ccc(F)cc2)c1)C(C)(C)C", "Cmax (ng/mL)": 820}
{"smiles": "CNC(=O)[C@@H](NC(=O)[C@@H](CC(=O)O)n1ccc(-c2ccc(-c3ccc(C#N)cc3)cc2)c1)C(C)(C)C", "Cmax (ng/mL)": 410}

---

target_or_system: catalytic domain of human stromelysin (Hsln) (Homo sapiens)
Construct: The catalytic domain of human stromelysin (Hsln) was obtained by expression and purification of a C-terminally truncated prostromelysin-1
assay_name: Fluorometric MCA-peptide hydrolysis assay, stromelysin (Hsln)
experimental_conditions: apparent Ki; 10 μM MCA peptide substrate, 37° C., pH 7.5; read-out: Hsln (Ki,app)
Method: The catalytic domain of human stromelysin (Hsln) was obtained by expression and purification of a C-terminally truncated prostromelysin-1 from E. coli host BL21 (see Marcy et al. Biochem., 1991, 30, 6476). […] The assay method was based on the hydrolysis of MCA-Pro-Leu-Gly-Leu-DPA-Ala-Arg-NH2 (American Peptide Co.) at 37° C. […] The fluorescence changes were monitored with a Perkin-Elmer LS-50B fluorimeter using an excitation wavelength of 328 nm and an emission wavelength of 393 nm. […]
Documented Ki across a set of compounds

{"compound": "CNC(=O)[C@@H](NC(=O)C(CC(=O)NO)n1cnc(-c2ccc(-c3ccccc3)cc2)c1)C(C)(C)C (mixture of isomers) [Example 19(e)]", "target_or_system": "catalytic domain of human stromelysin (Hsln) (Homo sapiens)", "Ki": "0.0023 µM"}
{"compound": "CNC(=O)[C@@H](NC(=O)[C@@H](CC(=O)O)c1ccn(-c2ccc(-c3ccc(C#N)cc3)cc2)c1)C(C)(C)C", "target_or_system": "catalytic domain of human stromelysin (Hsln) (Homo sapiens)", "Ki": "0.0013 µM"}
{"compound": "CC(C)(C)[C@H](NC(=O)[C@@H](CC(=O)O)n1ccc(-c2ccc(-c3ccc(C(N)=O)cc3)cc2)c1)C(=O)Nc1ccncc1", "target_or_system": "catalytic domain of human stromelysin (Hsln) (Homo sapiens)", "Ki": "0.00046 µM"}
{"compound": "COC[C@H](Cc1ccccc1)NC(=O)[C@@H](CC(=O)O)n1ccc(-c2ccc(-c3ccccc3)cc2)c1", "target_or_system": "catalytic domain of human stromelysin (Hsln) (Homo sapiens)", "Ki": "0.331 µM"}
{"compound": "N#Cc1ccc(-c2ccc(-c3ccn([C@H](CC(=O)O)C(=O)N[C@H](CO)Cc4ccccc4)c3)cc2)cc1", "target_or_system": "catalytic domain of human stromelysin (Hsln) (Homo sapiens)", "Ki": "0.03 µM"}
{"compound": "CCC[C@H](C(=O)O)[C@H](C(=O)N[C@H](CO)C(C)(C)C)n1ccc(-c2ccc(-c3ccc(C#N)cc3)cc2)c1", "target_or_system": "catalytic domain of human stromelysin (Hsln) (Homo sapiens)", "Ki": "0.04 µM"}

---

assay_name: Determination of inhibitor concentration in plasma after oral dosing
Type: in vivo, Sprague Dawley rats
experimental_conditions: Sprague-Dawley, rat plasma, dose 25 mg/kg, vehicle A (molar equivalent of HCl in water)
metric: Cmax

{"smiles": "CC1(C)COC(=O)[C@H]1NC(=O)[C@@H](CC(=O)O)n1ccc(-c2ccc(-c3ccncc3)cc2)c1", "experimental_result": "450 ng/mL"}

---

assay_name: Determination of inhibitor concentration in plasma after oral dosing
Type: in vivo, Sprague Dawley rats
experimental_conditions: Sprague-Dawley, rat plasma, dose 25 mg/kg, vehicle C (2.8 mg/mL sodium bicarbonate in 60% aqueous propylene glycol)

{"smiles": "CC1(C)COC(=O)[C@H]1NC(=O)[C@@H](CC(=O)O)c1ccn(-c2ccc(-c3ccc(C#N)cc3)cc2)c1", "AUC (ng·h/mL)": 5820}

---

target_or_system: catalytic domain of human stromelysin (Hsln) (Homo sapiens, UniProt P08254)
Construct: The catalytic domain of human stromelysin (Hsln) was obtained by expression and purification of a C-terminally truncated prostromelysin-1
Sequence (P08254 100-272 limits assumed): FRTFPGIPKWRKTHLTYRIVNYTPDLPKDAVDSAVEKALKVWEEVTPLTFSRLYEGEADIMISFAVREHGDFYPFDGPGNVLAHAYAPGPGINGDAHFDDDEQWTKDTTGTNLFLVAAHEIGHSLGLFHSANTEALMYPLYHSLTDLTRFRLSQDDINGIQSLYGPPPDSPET
assay_name: Fluorometric MCA-peptide hydrolysis assay, stromelysin (Hsln)
experimental_conditions: apparent Ki; 10 μM MCA peptide substrate, 37° C., pH 7.5; read-out: Hsln (Ki,app)
Measured Ki, listed per entry for reference.

{"molecule": "CC(C)(C)[C@@H](CO)NC(=O)[C@@H](CC(=O)O)n1ccc(-c2ccc(-c3ccncc3)cc2)c1 [Example 5(a)]", "target_or_system": "catalytic domain of human stromelysin (Hsln) (Homo sapiens, UniProt P08254)", "Ki (µM)": 0.084}
{"molecule": "CCCc1ccc(-c2ccn([C@H](CC(=O)O)C(=O)N[C@H](C(=O)NC)C(C)(C)C)c2)cc1 [Example 1(j)]", "target_or_system": "catalytic domain of human stromelysin (Hsln) (Homo sapiens, UniProt P08254)", "Ki (µM)": 0.133}
{"molecule": "CON(C)C(=O)[C@H](CC(C)C)NC(=O)[C@@H](CC(=O)O)n1ccc(-c2ccc(-c3ccccc3)cc2)c1 [Example 1(l)]", "target_or_system": "catalytic domain of human stromelysin (Hsln) (Homo sapiens, UniProt P08254)", "Ki (µM)": 0.317}
{"molecule": "CC(C)(C)[C@@H](CO)NC(=O)[C@@H](CC(=O)NO)n1ccc(-c2ccc(-c3ccncc3)cc2)c1 [Example 9]", "target_or_system": "catalytic domain of human stromelysin (Hsln) (Homo sapiens, UniProt P08254)", "Ki (µM)": 0.0002}
{"molecule": "CNC(=O)[C@@H](NC(=O)[C@@H](CC(=O)O)n1ccc(-c2ccc(-c3ccncc3)cc2)c1)C(C)(C)C [Example 6(b)]", "target_or_system": "catalytic domain of human stromelysin (Hsln) (Homo sapiens, UniProt P08254)", "Ki (µM)": 0.0036}
{"molecule": "CNC(=O)[C@@H](NC(=O)[C@@H](CC(=O)O)n1ccc(-c2ccc(-c3ccc(C(N)=O)cc3)cc2)c1)C(C)(C)C [Example 5(e)]", "target_or_system": "catalytic domain of human stromelysin (Hsln) (Homo sapiens, UniProt P08254)", "Ki (µM)": 0.0017}
{"molecule": "CCCC(C(=O)O)[C@H](C(=O)N[C@H](CO)Cc1ccccc1)n1ccc(-c2ccc(-c3ccc(C#N)cc3)cc2)c1 (mixture of isomers) [Example 10(b)]", "target_or_system": "catalytic domain of human stromelysin (Hsln) (Homo sapiens, UniProt P08254)", "Ki (µM)": 0.016}

---

Each entry below carries its recorded Ki.
target_or_system: UniProtKB P09237
Sequence (P09237 95-267): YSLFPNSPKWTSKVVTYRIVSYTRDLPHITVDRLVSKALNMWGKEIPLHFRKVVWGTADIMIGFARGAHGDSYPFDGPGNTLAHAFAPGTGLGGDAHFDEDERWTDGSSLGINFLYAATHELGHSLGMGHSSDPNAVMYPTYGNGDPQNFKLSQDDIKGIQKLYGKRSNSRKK
metric: Ki (nM)

{"compound": "COC(=O)c1ccc(NC(=O)[C@H](CC(C)C)NC(=O)[C@@H](CC(=O)O)c2ccsc2)cc1", "target_or_system": "UniProtKB P09237", "experimental_result": 309}
{"compound": "COC[C@H](Cc1ccccc1)NC(=O)[C@@H](CC(=O)O)n1ccc(-c2ccc(-c3ccccc3)cc2)c1", "target_or_system": "UniProtKB P09237", "experimental_result": 1000}
{"compound": "CC(=O)[C@H](CC(C)C)NC(=O)[C@@H](CC(=O)O)n1ccc(-c2ccc(-c3ccccc3)cc2)c1", "target_or_system": "UniProtKB P09237", "experimental_result": 400}
{"compound": "CC(C)C[C@H](NC(=O)[C@@H](CC(=O)O)n1ccc(-c2ccc(-c3ccccc3)cc2)c1)C(C)O (mixture of isomers)", "target_or_system": "UniProtKB P09237", "experimental_result": 1250}

---

target_or_system: Human matrilysin (Matr) (Homo sapiens, UniProt P09237)
Sequence (P09237 95-267): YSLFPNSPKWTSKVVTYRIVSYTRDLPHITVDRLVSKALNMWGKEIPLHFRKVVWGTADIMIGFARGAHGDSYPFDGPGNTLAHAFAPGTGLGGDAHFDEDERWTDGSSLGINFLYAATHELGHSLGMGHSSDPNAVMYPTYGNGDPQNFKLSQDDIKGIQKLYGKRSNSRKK
Rule: measured Ki below 600 nM gets Yes; anything equal to or greater than 600 nM gets No.

{"compound": "O=C(O)C[C@H](C(=O)N[C@H]1Cc2cn(c3ccccc23)CCOCCNC1=O)n1ccc(-c2ccccc2)c1", "class_label": "No"}
{"compound": "CCC[C@H](C(=O)O)[C@H](C(=O)N[C@H](CO)C(C)(C)C)n1ccc(-c2ccc(-c3ccc(C#N)cc3)cc2)c1", "class_label": "No"}
{"compound": "CCOC(=O)c1ccc(NC(=O)[C@H](CC(C)C)NC(=O)[C@@H](CC(=O)O)n2cccc2)cc1", "class_label": "No"}
{"compound": "CC(C)(C)[C@H](NC(=O)[C@@H](CC(=O)O)n1ccc(-c2ccc(-c3ccc(C(N)=O)cc3)cc2)c1)C(=O)Nc1ccncc1", "class_label": "Yes"}
{"compound": "CCCC(C(=O)O)[C@H](C(=O)N[C@H](CO)Cc1ccccc1)n1ccc(-c2ccc(-c3ccc(C#N)cc3)cc2)c1 (mixture of isomers)", "class_label": "Yes"}

All values here come from patent US6495699B2.
